- Measured Target: JAK2 (Homo sapiens)
- Construct: purchased Invitrogen
- Sequence (O60674 whole entry): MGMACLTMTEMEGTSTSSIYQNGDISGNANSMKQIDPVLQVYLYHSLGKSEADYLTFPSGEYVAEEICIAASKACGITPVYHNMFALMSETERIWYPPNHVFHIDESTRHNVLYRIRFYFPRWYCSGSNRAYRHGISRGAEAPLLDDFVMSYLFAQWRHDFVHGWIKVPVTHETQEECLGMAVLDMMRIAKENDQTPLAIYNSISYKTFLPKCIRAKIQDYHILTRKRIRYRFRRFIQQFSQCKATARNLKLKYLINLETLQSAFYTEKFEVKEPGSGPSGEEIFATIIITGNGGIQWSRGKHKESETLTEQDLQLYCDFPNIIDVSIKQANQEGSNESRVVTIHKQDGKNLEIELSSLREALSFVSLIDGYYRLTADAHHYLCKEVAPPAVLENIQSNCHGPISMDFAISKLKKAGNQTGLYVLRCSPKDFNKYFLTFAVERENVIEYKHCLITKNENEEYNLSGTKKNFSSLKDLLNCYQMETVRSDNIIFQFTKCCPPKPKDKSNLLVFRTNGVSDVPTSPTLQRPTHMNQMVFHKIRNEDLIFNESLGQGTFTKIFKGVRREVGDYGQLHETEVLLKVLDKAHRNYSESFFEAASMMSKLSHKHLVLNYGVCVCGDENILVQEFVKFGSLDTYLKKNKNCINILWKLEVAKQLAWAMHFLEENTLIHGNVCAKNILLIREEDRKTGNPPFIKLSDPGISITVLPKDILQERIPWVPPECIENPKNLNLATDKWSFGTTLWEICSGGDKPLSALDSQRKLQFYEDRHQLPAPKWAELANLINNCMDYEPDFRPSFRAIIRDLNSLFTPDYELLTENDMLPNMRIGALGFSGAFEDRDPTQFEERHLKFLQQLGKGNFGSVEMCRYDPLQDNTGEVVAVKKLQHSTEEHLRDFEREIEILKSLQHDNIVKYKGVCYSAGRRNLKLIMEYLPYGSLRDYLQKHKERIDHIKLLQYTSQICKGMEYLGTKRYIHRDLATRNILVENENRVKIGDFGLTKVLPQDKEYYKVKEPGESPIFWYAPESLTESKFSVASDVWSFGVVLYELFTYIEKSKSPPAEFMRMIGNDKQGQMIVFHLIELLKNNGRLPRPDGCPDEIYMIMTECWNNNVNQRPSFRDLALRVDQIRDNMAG
- Experimental Details: JAK2 enzyme inhibition test (LANCE method)
- Format: biochemical
- Run Parameters: 1 μM test compound; read-out: JAK2 enzyme inhibitory activity (%, 1 μM)
Observation Type: inhibition at 1 µM (%)
Answers are plain numbers, in %.

Use these answered entries as a reference point.
Molecule: CC(C)[C@H](C)n1cc(-c2cc(CN3CCS(=O)(=O)CC3)n(C)n2)c2[nH]nc(N)c2c1=O
Unit String: %
inhibition at 1 µM: 98
--
Molecule: CN(c1cc(-c2cn(-c3c(F)cccc3C#N)c(=O)c3c(N)n[nH]c23)nn1C)C1CCCC1
Unit String: %
inhibition at 1 µM: 94
--
Molecule: Cn1nc(-c2cn(-c3c(F)cccc3F)c(=O)c3c(N)n[nH]c23)cc1N1CCC[C@@H]1CC#N
Unit String: %
inhibition at 1 µM: 98
--
Molecule: CC(C)[C@H](C)n1cc(-c2cc(N3CCC4(CC3)COC4)n(C)n2)c2[nH]nc(N)c2c1=O
Unit String: %
inhibition at 1 µM: 99

# per-item lookup of inhibition at 1 µM; items listed below
1. CC1CCCCC1n1cc(-c2cc(C(C)(C)O)n(C)n2)c2[nH]nc(N)c2c1=O (stereo not shown) [Example 117]
2. CC(C)[C@H](C)n1cc(-c2cc(C3CC3)n(C)n2)c2[nH]nc(N)c2c1=O
3. CC(C)[C@H](C)n1cc(-c2cc(N3CCCCC3)n(C)n2)c2[nH]nc(N)c2c1=O

85
97
98
